assayProcedure: PET hydrolysis, aromatic products released after 48 h (umol product/mg enzyme); higher = more PET depolymerization activity
assayContext: substrate: cryPow; 40 °C; pH 6.5
Below, each of the sequences is paired with its reported PET hydrolysis value.

Illustrative cases are given below, each with its answer.
recordSequence: ADNPYQRGPAPTNTSIEATRGTYAVSTKTISALSARGFGGGTIYYPTSTADGTFGVVAISPGYTASQSTIAWLGPRLASFGFVVVTIDTTTRYDQPTSRGSQLLAALDQAIGDSTVGPRIDATRQAVVGHSMGGGGTLEAAKTRRSLEAAVPLTGWNLDKTWPEVEAATLVIGAQNDTVAPTTSHSIPFYNSLSGAERKAYLELRGASHFAPVTSNTTIAKHTLSWLKRYVDDDTRYEQFISPGPSTAIGSPVSDYRVN [DP022]
PET hydrolysis: < 3
--
recordSequence: ATTSYQRGPNPTEQSVRAANGPFAYSQFAIPDAEATGFGEGTIYYPNNTSVGTFGGVVIAPGFNADQNSTVWLGKRLASHGFVAVTITTHELNDQPYERGKQILAALDYLTGQSPAFVRSRLDPARLAAVGHSMGGGGTLFAAAQRPSLKAIVPLAPWALAKNWSNVQVPTMILSGAQDASAPPAEHAEKFYASLTSAPEKAYAKLDVNHVRFAWEHPLIGKLVVSWLKRFVDEDTRYTQFLCPTATGAVLLEYRATCPLG [DP026]
PET hydrolysis: < 3
--
recordSequence: DEIGQAPTASNITGNGSFATTSESISSLVSGFGGGRVYYPTATGRYPVIAISPGFTATWSSLAWIGPRLSSWGFVVVGIETNSIYDQPGSRGNQLLAALNWAVNSSSTAVRSRVDGSRRGVAGHSMGGGGTLEALAADTSGLVKAGVPLAPWNTDKIWSNVSEPVLIVGGQADTIAPVATHSVPFYNTLAGPKTYVELTGASHFFPQTTNATTSRALVSWFKRWLNQDSRFTPYTCGFGGLAVSDFRSNAC [ESM147]
PET hydrolysis: 31

Exam item: Look up PET hydrolysis for this sequence: NPYERGPDPTTASIEASRGSFATSTVTVSRLAVSGFGGGTIYYPTTTTAGTFGAISIAPGFTATQSSMAWLGPRLASQGFVVFTIDTITTSDQPDSRGRQLLASLDYLTQQSSVRSRIDSSRLGVVGHSMGGGGTLEAARSRPSLQAAVPLTGWNLTKNWSTLRVPTLVVGAQSDTIAPVASHSIPFYTSLPSTLDRAYLELRGASHFAPNTSNTTIAKYTLSWLKRFIDNDTRYEQFLCPIPSSSLSISDYRGNCPHNG [ESM167]
Marked response: 21

Exam item: What do you get for ADNPYERGPDPTESSIEASRGPFAVSQTTVSSLAVTGFGGGTIYYPTDTSQGTFGAVAISPGYTADQSSIAWIGPRLASQGFVVFTIDTITRYDQPASRGDQLLAALDYLTQRSSVRGRIDSSRLGVAGHSMGGGGTLEAAEERPSLQAAVPLAPWNLQKNFSGVRVPTFIIGGESDTVAPVATHSEPFYTSLPSTLDKAYMELNNASHFFPNTPNTTMAKYMISWFKRFIDDDTRYDQFLCPNPSGLAIEEYRSTCPY [TEP089] ?
Marked response: < 3

Exam item: Let us now turn to ADNPYERGPAPTTSSIEASRGPFATASTTVSSLVSGFGGGTIYYPTSTAEGTFGAVAISPGYTGTQSSIAWLGPRIASQGFVVITIDTNTIYDQPDSRASQLLAALDYLTQSSSVRTRIDATRLGVMGHSMGGGGTLRAAESRPALQAAIPLTAWHTDKTWGNVRVPTLVIGAENDSIAPVATHSEPFYTSLPSTLDKAYLELNAADHFAPNSSNTTIAKYSISWLKRFIDNDTRYEQFLCPPPSRSLLIEEYRDTCPHS [TEP108]
Marked response: < 3
